- Tested on: SK-MEL-28 melanoma
- Test Method Notes: NCI-60 one-dose screen, 48 h
- Experimental Conditions: 10 µM unless noted
This is part of a sample that, as a whole, favours compounds with a hit. Of some 83,000 tested, about 20% had one in any assay. Calls of active or inactive are those of the source. The calls were made as follows: active = growth percent below 10; inactive = the rest.
Outcomes: 1 (yes) for active, 0 (no) for inactive

* COc1cccc(OC)c1C(=O)N[C@@H]1C(=O)N2[C@@H]1SC(C)(C)[C@@H]2C(=O)O | 0 (no)
* C=C1C(=O)O[C@H]2[C@H]1CC/C(COC(=O)C(C)c1ccc(CC(C)C)cc1)=C\CC[C@@]1(C)O[C@@H]21 (some centres undefined) | 1 (yes)
* COc1cc(CCCO)c(OC)c(OC)c1OC | 0 (no)
* COc1cccc(Cc2nn3cc(-c4ccccc4)nc3s2)c1 | 0 (no)
* Cc1cccc2c1S/C(=C/c1ccc([N+](=O)[O-])cc1)C2=O | 0 (no)
* CC1(C)C2CC1C1(/C=N\Nc3ccccc3)C(C2)C(C#N)(C#N)C1(C#N)C#N (centres undefined) | 0 (no)
* COc1cccc(-c2nc(-c3ccc(NC(=O)C(C)C)cc3)[nH]c2-c2ccnc(Br)c2)c1 | 0 (no)
* C=C1C(=O)O[C@H]2[C@H]1CC/C(COC(=O)CCC(=O)NCCOCCOCC(=O)Nc1ccc(OC)c(C(N)=O)c1O)=C\CC[C@@]1(C)O[C@@H]21 | 0 (no)
* COc1cccc2nc3n(c12)C(c1c(F)cccc1F)SC3 (centres undefined) | 0 (no)

###

- Test system: KM12 colon
- Test Method Notes: NCI-60 one-dose screen, 48 h (100 = growth as untreated, 0 = no growth, -100 = all killed)
- Experimental Conditions: 10 µM unless noted
About 83,000 compounds went through this panel and 20% of them were active in at least one assay; those are over-represented in the sample as a whole.
The compounds listed here are annotated with their growth.
Measured Metric: growth (%)

• CC(=O)CC[C@H]1C(=O)N[C@@H](C(C)C)C(=O)N[C@@H](Cc2cc(O)cc(F)c2)C(=O)N2CCC[C@H](N2)C(=O)O[C@H](/C(C)=C/C=C/C(=O)OC(C)(C)C)C/C=C/C=C/[C@H](O)[C@H](C)[C@H]1O = 34.1
• CCOC(=O)Nc1ccc(C(=O)/C=C/c2ccccc2)cc1 = 8.51
• COc1ccc(C(=O)N=Nc2c(O)n(C)c3ccccc23)cc1 = 95.5
• COc1ccc(C(=O)COC(=O)[C@H](C[Se][Se]C[C@H](NC(=O)c2ccc(Br)cc2F)C(=O)OCC(=O)c2ccc(OC)cc2)NC(=O)c2ccc(Br)cc2F)cc1 = -81.6
• CCCC1CCC(O)(C(C)(O)C(=O)NC2C(=O)N3NCCCC3C(=O)N(O)C(C)C(=O)N3NCCCC3C(=O)N3NCC(O)CC3C(=O)NC(C)C(=O)OC2C(C)C)OC1CC (centres undefined) = -88.5
• Cc1cc(=O)oc2cc(OC(=O)CN3CCN(C)CC3)ccc12 = 99.5
• C=C(C)C1CCC2(C)OC2C1 (centres undefined) = 115
• COC(=O)C(Cc1ccccc1)NC(=O)NC(=O)NC(=O)CI (centres undefined) = 96.7
• CNC(C)[C@H]1CCC2C3CCC4C[C@@H](N(C)C(=O)c5ccccc5)CC[C@]4(C)C3CC[C@@]21C (some centres undefined) = 15.4
• OC(COc1ccccc1Cl)CN1CCN(c2cccc(Cl)c2)CC1 (centres undefined) = 104
• O=[N+]([O-])c1ccccc1NCSc1ccc(Cl)cc1 = 79.2
• COC(=O)[C@H](C)NC(=O)NC(=O)NC(=O)CI = 98.5
• COc1cc(-c2nc3sccn3c2-c2ccnc(NCCCNS(=O)(=O)c3ccc(F)cc3)n2)ccc1F = 74.2
• Cc1ccc(C(=O)NN2C(=O)CSC2c2cccc([N+](=O)[O-])c2)cn1 (centres undefined) = 106
• O=C(/C=C/c1sc(Cl)nc1Cl)c1ccc(Br)cc1 = 77.2
• O=C(CSc1nc2ccccc2[nH]1)Nc1cccc(Cl)c1 = 99.5
• Fc1cc(-c2nnc3n2NC(=Nc2ccc(Cl)cc2)CS3)c(Cl)cc1Cl = 60.5
• COc1c(B(O)O)cc(F)cc1-c1nc2ccc3[nH]ncc3c2c2c1CCCC2 = -3.54
• O=C(CCOCCNC(=O)COc1ccc2c(c1)OCC(c1ccc(F)cc1)C2=O)NCCCC(O)(P(=O)(O)O)P(=O)(O)O (centres undefined) = 100
